Measured values drawn from ChEMBL document CHEMBL1201862 for this set.

- Test system: A549
- assay.method.text: NCI tumour cell line growth inhibition, 48 h
The source made the active and inactive calls. Rule as the data show it: active = GI50 up to about 1.1 µM and inactive = higher.
readout.type: GI50

Consider the reported GI50 for these compounds:
1) COC(=O)C1=CN(C2CCCCC2)C2(c3ccccc3)c3ccccc3C(=O)OC(=O)C12 (stereo unspecified)
95.5 µM (inactive)
2) C=C(C)CCN(C(=O)OC(C)(C)C)c1cc(C(C)C)co1
48.4 µM (inactive)
3) N=C(N)C(/N=N\c1ccccc1)C(=N)N (stereo unspecified)
49.9 µM (inactive)

Please report GI50 for every entry that follows.
1. COc1ccc(C(=O)CC2=Nc3nnc(CCCCCCCc4nnc5n4C(=O)C(CC(=O)c4ccc(OC)cc4)=N5)n3C2=O)cc1
2. CCCNC(=S)NNC(=O)CSc1nc(-c2ccccc2)c(-c2ccccc2)[nH]1
3. CCN(CC)CC(=O)Nc1ccc2c(c1)C(=O)c1ccc(NC(=O)CN(CC)CC)cc1C2=O

Reply:
["> 100 µM (inactive)", "75.5 µM (inactive)", "27.9 µM (inactive)"]
